Data origin, for the record: FireProtDB (doi:10.1006/jmbi.1998.1906)

B1: Lysozyme C, P61626 (parent)
chain: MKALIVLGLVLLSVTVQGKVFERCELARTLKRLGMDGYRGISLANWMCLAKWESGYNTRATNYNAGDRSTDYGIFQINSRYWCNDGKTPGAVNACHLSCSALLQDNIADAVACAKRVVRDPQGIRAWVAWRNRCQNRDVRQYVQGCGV

# Variants of: B1
# testParameters: Homo sapiens; pH 3; Thermal; DSC; glycine 0.05 M; reversible: yes; structure 1LZ1; whole UniProt chain shown
readout: Tm (°C)
One number for each entry, in °C.

Example results:
[
  {
    "sequenceData": "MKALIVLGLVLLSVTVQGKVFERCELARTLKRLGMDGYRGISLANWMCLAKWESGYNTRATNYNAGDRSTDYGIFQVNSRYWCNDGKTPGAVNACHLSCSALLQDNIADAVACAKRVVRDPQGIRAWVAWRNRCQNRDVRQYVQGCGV",
    "Tm, °C": 50.3
  },
  {
    "sequenceData": "MKALIVLGLVLLSVTVQGKVFERCELARTLKRLGMDGYRGISLANWMCLAKWESGYNTRATNYNAGDRSTDYGIFQINSRYWCNDGKTPGAVNACHLSCSALLQDNIADAVACAKRVVRDPQGIRAWVAWRNRCQNRDARQYVQGCGV",
    "Tm, °C": 47
  },
  {
    "sequenceData": "MKALIVLGLVLLSVTVQGKVFERCELARTLKRLGMDGYRGISLANWMCLAKWESGYNTRATNYNAGDRSTDYGIFQINSRYWCNDGKTPGAVNACHLSCSALLQDNIADAVACAKRVVRDPQGVRAWVAWRNRCQNRDVRQYVQGCGV",
    "Tm, °C": 49.5
  },
  {
    "sequenceData": "MKALIVLGLVLLSVTVQGKVFERCELARTLKRLGMDGYRGISLANWMCLAKWESGYNTRATNYNAGDRSTDYGVFQINSRYWCNDGKTPGAVNACHLSCSALLQDNIADAVACAKRVVRDPQGIRAWVAWRNRCQNRDVRQYVQGCGV",
    "Tm, °C": 48.2
  }
]

Kindly consider the entry below.
In plain terms, MKALIVLGLVLLSVTVQGKVFERCELARTLKRLGMDGYRGISLANWMCLAKWESGYNTRATNYNAGDRSTDYGIFQINSRYWCNDGKTPGAVNACHLSCSALLQDNIADAVACAKRVVRDPQGIRAWAAWRNRCQNRDVRQYVQGCGV has a documented Tm of 55
